# TARGET: NAMPT (Homo sapiens, UniProt P43490)
# Construct: His tag; host or cells: E. coli
# Sequence (P43490 whole entry): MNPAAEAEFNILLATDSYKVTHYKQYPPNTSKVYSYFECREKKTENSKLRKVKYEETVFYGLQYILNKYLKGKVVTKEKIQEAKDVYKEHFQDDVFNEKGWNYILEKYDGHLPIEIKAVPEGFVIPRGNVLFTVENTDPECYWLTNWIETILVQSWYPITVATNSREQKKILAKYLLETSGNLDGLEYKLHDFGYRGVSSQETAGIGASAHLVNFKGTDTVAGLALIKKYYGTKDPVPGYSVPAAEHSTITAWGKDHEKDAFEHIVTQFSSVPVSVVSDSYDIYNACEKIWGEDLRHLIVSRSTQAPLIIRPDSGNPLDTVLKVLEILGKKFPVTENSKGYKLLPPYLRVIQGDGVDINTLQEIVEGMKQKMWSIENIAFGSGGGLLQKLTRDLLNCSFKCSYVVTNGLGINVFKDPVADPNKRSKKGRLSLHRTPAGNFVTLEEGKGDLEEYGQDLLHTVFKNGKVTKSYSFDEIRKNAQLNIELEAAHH
# ASSAY PROTOCOL: Biochemical inhibition assay: NAMPT enzymatic reaction, NMN quantified by mass spectrometry
# CONDITION SUMMARY: NAMPT enzymatic assay; read-out: Biochem IC50
pIC50: −log10 of the molar value.
Entries and their measured pIC50 follow.
VALUE KIND: pIC50

1. CCNC(=O)c1ccc(S(=O)(=O)c2ccc(CNC(=O)c3cc4cnccc4[nH]3)cc2)cc1 | 7.84
2. CC(C)CNC(=O)c1cccc(S(=O)(=O)c2ccc(CNC(=O)c3cnc4nccn4c3)cc2)c1 | 8.15
3. O=C(NCc1ccc(S(=O)(=O)c2ccc(Cl)c(C(F)(F)F)c2)cc1)c1ccc2nccn2c1 | 8.01
4. O=C(NCc1ccc(S(=O)(=O)c2ccc(CO)cc2)cc1)c1ccc2nccn2c1 | 7.85
5. O=C(NCc1ccc(S(=O)(=O)c2ccc(C(F)(F)F)cc2)cc1)c1cnc2nccn2c1 | 8.22
6. COc1cncc(S(=O)(=O)c2ccc(CNC(=O)c3cnc4[nH]ncc4c3)cc2)c1 | 7.38
7. Cc1ncccc1S(=O)(=O)c1ccc(CNC(=O)c2cc3ccncc3s2)cc1 | 7.81
8. CCN(C)c1ncc(S(=O)(=O)c2ccc(CNC(=O)c3ccc4nccn4c3)cc2)s1 | 8.48
9. Cc1cnc(S(=O)(=O)c2ccc(CNC(=O)c3ccc4nccn4c3)cc2)n1C | 7.51
10. O=C(NCc1ccc(S(=O)(=O)c2cccc(C(F)(F)F)c2Cl)cc1)c1cnc2nccn2c1 | 8.62
11. O=C(NCc1ccc(S(=O)(=O)c2ccc(F)c(OCC(F)(F)F)c2)cc1)c1cnc2nccn2c1 | 8.62
12. Cn1cc(S(=O)(=O)c2ccc(CNC(=O)c3ccc4nccn4c3)cc2)c(C(F)(F)F)n1 | 7.52
13. O=C(NCc1ccc(S(=O)(=O)c2ccc(OCC(F)(F)F)c(F)c2)cc1)c1cnc2nccn2c1 | 8.36
14. COc1cc(-n2cccn2)ccc1S(=O)(=O)c1ccc(CNC(=O)c2cnc3[nH]ncc3c2)cc1 | 7.62
15. O=C(NCc1ccc(S(=O)(=O)c2cccc(CN3CCCCC3)c2)cc1)c1cnc2nccn2c1 | 8.72
16. O=C(NCc1ccc(S(=O)(=O)c2cnn(-c3cccc(Cl)c3)c2)cc1)c1cc2cnccc2[nH]1 | 7.77
17. O=C(NCc1ccc(S(=O)(=O)c2cccc(N3CCCCC3)c2)cc1)c1cc2cnccc2[nH]1 | 7.84
18. O=C(NCc1ccc(S(=O)(=O)c2ccc(F)c(C(F)(F)F)c2)cc1)c1cnc2[nH]ncc2c1 | 7.40
19. O=C(NCc1ccc(S(=O)(=O)c2cccc(N3CCCC3)c2)cc1)c1ccc2nccn2c1 | 7.87
20. O=C(NCc1ccc(S(=O)(=O)c2ccc(C(F)(F)F)c(Cl)c2)cc1)c1cnc2[nH]ncc2c1 | 7.07
21. O=C(NCc1ccc(S(=O)(=O)c2ccc(C(F)(F)F)cc2C(F)(F)F)cc1)c1cc2ccncc2o1 | 7.28
22. COc1ccc(C(C)C)cc1S(=O)(=O)c1ccc(CNC(=O)c2cnc3[nH]ncc3c2)cc1 | 7.05
23. O=C(NCc1ccc(S(=O)(=O)c2cccc(C(F)(F)F)c2)cc1)c1ccc2nccn2c1 | 8.07
